MEASUREMENT PROTOCOL: Primary qHTS for Huh7 cytotoxicity: counterscreen for inhibitors of MERS-S pseudotyped particle cell entry (AID 1479147)
ASSAY CONTEXT: cell viability read-out; series mostly up to 57.1 µM
Records with an inconclusive call do not appear. The source made the active and inactive calls. Calls follow the shape of the full dose curve.

# COMPOUND, outcome
measured = [
    ("COC(=O)C1=C(C)NC(COC(N)=O)=C(C(=O)OC(C)C)C1c1cccc(Cl)c1Cl (stereo not drawn)", "inactive"),
    ("Nc1ccc(N=Nc2ccccc2)c(N)n1", "inactive"),
    ("CC1(C)O[C@@H]2C[C@H]3[C@@H]4CCC5=CC(=O)CC[C@]5(C)[C@@]4(F)[C@@H](O)C[C@]3(C)[C@]2(C(=O)CCl)O1", "inactive"),
    ("C#C[C@]1(O)CC[C@H]2[C@@H]3[C@H](C)CC4=C(CCC(=O)C4)[C@H]3CC[C@@]21C", "inactive"),
    ("CC(=O)O[C@]1(C(C)=O)CC[C@H]2[C@@H]3C=C(Cl)C4=CC(=O)CC[C@]4(C)[C@H]3CC[C@@]21C", "inactive"),
    ("CN1CCN(c2c(F)cc3c(=O)c(C(=O)O)cn(CCF)c3c2F)CC1", "inactive"),
    ("CC[N+](CC)(CC)CCOC(=O)C(C1CCCC1)C1CCCC1", "inactive"),
    ("CCCCNc1cc(C(=O)O)cc(S(N)(=O)=O)c1Oc1ccccc1", "inactive"),
]

###

ASSAY CONTEXT: Ebola virus entry assay, blue channel fluorescence
The source made the active and inactive calls.
Classes used: active, inactive

# COMPOUND, GROUP
rows = [
    ("O=C(NOCC1CC1)c1ccc(F)c(F)c1Nc1ccc(I)cc1Cl", "active"),
    ("CC1=C(C(=O)OC(C)C)C(c2cccc([N+](=O)[O-])c2)C(C(=O)OC2CN(C(c3ccccc3)c3ccccc3)C2)=C(N)N1 (stereo not drawn)", "active"),
    ("CC(C)(C)c1ccc(C(O)CCCN2CCC(C(O)(c3ccccc3)c3ccccc3)CC2)cc1 (stereo not drawn)", "active"),
    ("Cc1nc2sccn2c(=O)c1CCN1CCC(=C(c2ccc(F)cc2)c2ccc(F)cc2)CC1", "active"),
    ("CN(C)C(=O)Nc1ccc(Cl)c(Cl)c1", "inactive"),
    ("CC(C)C[C@@H](N)C(=O)O", "inactive"),
    ("O=C(c1ccc(F)cc1)C1CCN(CCn2c(=O)[nH]c3ccccc3c2=O)CC1", "active"),
    ("Nc1ccc(S(=O)(=O)Nc2cnc3ccccc3n2)cc1", "inactive"),
]

###

ASSAY CONTEXT: Ebola virus entry assay, reporter ratio channel; Channel type: primary
The source made the active and inactive calls.
Possible outcomes: active, inactive

# MOLECULE, GROUP
measured = [
    ("CN(C)C(=O)Nc1ccc(Cl)c(Cl)c1", "inactive"),
    ("CC(C)CCCC(C)N (centres undefined)", "inactive"),
    ("CCC(=O)OC1(c2ccccc2)CCN(C)CC1", "active"),
    ("OCc1ccccc1O", "inactive"),
    ("Cc1ccc2c(c1)c1c3n2CCNC3CCC1 (centres undefined)", "active"),
    ("O=C(CCCN1CCC(n2c(=O)[nH]c3ccccc32)CC1)c1ccc(F)cc1", "active"),
    ("CCCCc1ccc2nc(NC(=O)OC)[nH]c2c1", "inactive"),
    ("CN1CCN(c2cc3c(cc2F)c(=O)c(C(=O)O)cn3-c2ccc(F)cc2)CC1", "inactive"),
    ("CC1=C2[C@H]3OC(=O)[C@@H](C)[C@@H]3CC[C@@]2(C)C=CC1=O", "inactive"),
    ("CC(=O)Oc1ccc(C(c2ccc(OC(C)=O)cc2)c2ccccn2)cc1", "inactive"),
    ("Nc1nc(=O)n([C@@H]2O[C@H](CO)[C@@H](O)[C@@H]2F)cc1I", "inactive"),
    ("Cc1ccc2nc(N)[nH]c(=O)c2c1Sc1ccncc1", "inactive"),
    ("CCOC(=O)N1CCC(n2c(=O)[nH]c3cc(Cl)ccc32)CC1", "inactive"),
    ("CCOC(=O)Nc1ccc(NCc2ccc(F)cc2)nc1N", "inactive"),
    ("COC(=O)[C@H]1[C@H]2C[C@@H]3c4[nH]c5cc(OC)ccc5c4CCN3C[C@H]2C[C@@H](OC(=O)/C=C/c2ccc(O)c(OC)c2)[C@@H]1OC", "active"),
    ("CNC1CCCN(c2c(F)cc3c(=O)c(C(=O)O)cn(C4CC4)c3c2OC)C1 (centres undefined)", "inactive"),
    ("CCC(=O)Oc1ccc2c(c1)CC[C@@H]1[C@@H]2CC[C@@]2(C)[C@H]1C[C@@H](OC(=O)CC)[C@@H]2OC(=O)CC", "inactive"),
    ("CC(C)(Oc1ccc(CCNC(=O)c2ccc(Cl)cc2)cc1)C(=O)O", "inactive"),
    ("OC[C@@H](O)[C@H](O)[C@H](O)[C@@H](O)CO", "inactive"),
]
